Listed below: Screen- Human/No Protein values for each entry.
Target: human vWF A1 domain (SEQ ID NO 5) (Homo sapiens, UniProt P04275, T1381A)
Sequence (P04275 with tags, fused parts or gaps T1381A): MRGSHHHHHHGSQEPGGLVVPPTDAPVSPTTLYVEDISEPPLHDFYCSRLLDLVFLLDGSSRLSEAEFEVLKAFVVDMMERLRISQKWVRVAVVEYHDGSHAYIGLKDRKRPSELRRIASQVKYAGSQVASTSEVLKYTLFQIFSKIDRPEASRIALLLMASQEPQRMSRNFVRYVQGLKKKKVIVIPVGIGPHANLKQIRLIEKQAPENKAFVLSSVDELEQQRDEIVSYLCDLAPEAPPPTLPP
Assay: 3-point dot blot screen, human vWF A1 domain
Type: binding
Conditions: rRdY aptamers; 100 nM human vWF A1 domain; ratio of fraction bound with target to without
From the text: When a significant positive ratio of binding of RNA in the presence of human or rabbit vWF A1 domain versus in the absence of protein was seen, the pools were cloned using the TOPO TA cloning kit (Invitrogen, Cat. #45-0641, Carlsbad, Calif.) according to the manufacturer's instructions. Round 9 and 12 pool templates were cloned and sequenced (125 total sequences), producing 48 unique clones. […]
Oligonucleotides are written 5' to 3', each unit as a sugar letter and its base; * is a phosphorothioate linkage, no mark a phosphodiester; rarer units and linkages stand in square brackets, end groups in braces. Plain capitals give the bases only. d = 2'-deoxy (DNA); r = 2'-OH (RNA)
Lab note: jot the number down without any unit.

MOLECULE: AMX203.A1: rRdY aptamer clone (nucleic acid) rGrGrArGdCrGdCrAdCdTdCrArGdCdCrAdCrArGdTdTdCdTrGdTdCrGrGdTrGrAdTrGrArAdTdTrArGdCrGdCrGrGrGrArGdCdTrGdTrGrGrGrAdCrGdTdTdTdCrGrAdCdCdTdCdTdCdTrGdCdTrArGdC
RESULT: 2.99
//
MOLECULE: AMX205.F7: rRdY aptamer clone (nucleic acid) rGrGrArGdCrGdCrAdCdTdCrArGdCdCrAdCrAdCrGrAdCrAdTdTrGrGdCrGrGrGdTdTrGdTrArAdTdTrAdCdCrAdCrGdCrAdTrGrGdCdTrGdTdTdTrGdTdTdTdCrGrAdCdCdTdCdTdCdTrGdCdTrArGdC
RESULT: 3.13
//
MOLECULE: AMX205.H10: rRdY aptamer clone (nucleic acid) rGrGrArGdCrGdCrAdCdTdCrArGdCdCrAdCdTrGdTdTrGdCdCrGrAdCrGrGdTrGrAdTrGdTrAdTdTrArAdCrGdCrGrGrGdCrArAdCrGdTdTrGrGdTrGdTdTdTdCrGrAdCdCdTdCdTdCdTrGdCdTrArGdC
RESULT: 1.88
//
MOLECULE: AMX205.H9: rRdY aptamer clone (nucleic acid) rGrGrArGdCrGdCrAdCdTdCrArGdCdCrAdCrGrAdCrGrGdTrGrAdTrGrGrAdTdTrArGdCrGdCrGrGdTrGrGrArGrArArGrAdTrGdCrGdCdTrGdTdTrGdTdTdTdCrGrAdCdCdTdCdTdCdTrGdCdTrArGdC
RESULT: 2.36
//
MOLECULE: AMX205.G9: rRdY aptamer clone (nucleic acid) rGrGrArGdCrGdCrAdCdTdCrArGdCdCrAdCrArAdCdTrGrGdTdTrGdTdCrGrGdTrGrAdTrGrGdCrAdTdTrArAdCrGdCrGrGrAdCdCrArGrGdCrAdTrGdTdTdTdCrGrAdCdCdTdCdTdCdTrGdCdTrArGdC
RESULT: 1.30
//
MOLECULE: AMX205.A7: rRdY aptamer clone (nucleic acid) rGrGrArGdCrGdCrAdCdTdCrArGdCdCrAdCdTdCrArArGrGrGrGrGdTdCrGdCrGdTrGrGrGrGrAdCrGrArArGrGrGdTdTrGdCrArGdTrGdTrGdTdCrGdTdTdTdCrGrAdCdCdTdCdTdCdTrGdCdTrArGdC
RESULT: 1.24
//
MOLECULE: AMX205.H8: rRdY aptamer clone (nucleic acid) rGrGrArGdCrGdCrAdCdTdCrArGdCdCrAdCrArArAdCrGrGrAdCrGrGdTrGrAdTrGrGrAdTdTrArAdCrGdCrGrGrGdTdTdTrAdTrGrGdCrArArGrGdTdTdTdCrGrAdCdCdTdCdTdCdTrGdCdTrArGdC
RESULT: 2.04
//
MOLECULE: AMX206.D8: rRdY aptamer clone (nucleic acid) rGrGrArGdCrGdCrAdCdTdCrArGdCdCrAdCrGrAdCrGrGdTrGrAdTrGrGrAdTdTrArGdCrGdCrGrGdTrGrGrAdTdCdTdTrArAdCrGdTrGdCrGrArGdTdTdTdCrGrAdCdCdTdCdTdCdTrGdCdTrArGdC
RESULT: 2.80
//
MOLECULE: AMX203.G9: rRdY aptamer clone (nucleic acid) rGrGrArGdCrGdCrAdCdTdCrArGdCdCrAdCrGrGrGrGdTrGrGrGdTrArGrAdCrGrGdCrGrGrGdTrAdTrGdTrGrGdCdTrGrGdTrGdTdCrGrArArGrGrGdTdTdTdCrGrAdCdCdTdCdTdCdTrGdCdTrArGdC
RESULT: 1.65
//
MOLECULE: AMX205.F9: rRdY aptamer clone (nucleic acid) rGrGrArGdCrGdCrAdCdTdCrArGdCdCrAdCrGrGrArGdCrGdTdCrGrGdTrGrAdTrGrGrAdTdTrArGdCrGdCrGrGdCdTdCdCrGdTrGrGdTrAdCrGdCdCdTdTdTdCrGrAdCdCdTdCdTdCdTrGdCdTrArGdC
RESULT: 2.22

Fill in reported Screen- Human/No Protein for this entry: AMX203.D6: rRdY aptamer clone (nucleic acid) rGrGrArGdCrGdCrAdCdTdCrArGdCdCrAdCrArGdTdTdCdTrGdTdCrGrGdTrGrAdTrGrArAdTdTrArGdCrGdCrGrArGrArGdCdTrGdTrGrGrGrAdCrGdTdTdTdCrGrAdCdCdTdCdTdCdTrGdCdTrArGdC
1.92

Kindly indicate its recorded Screen- Human/No Protein. Item: AMX203.A6: rRdY aptamer clone (nucleic acid) rGrGrArGdCrGdCrAdCdTdCrArGdCdCrAdCdCrAdCrGrGrGrGrAdCrGrGrGdTrArGrGrGdCrGrGrGdCrGrArGrGdTrGrGdTrGrGdCrAdTdTrArGdCrGdTdTdTdCrGrAdCdCdTdCdTdCdTrGdCdTrArGdC
1.16

Using the record for AMX205.H11: rRdY aptamer clone (nucleic acid) rGrGrArGdCrGdCrAdCdTdCrArGdCdCrAdCrGrGdCrAdCrGrAdCrGrGdTrGrAdTrGrGrAdTdTrArGdCrGdCrGrGdTrGdTdCrGrGdTrGrGdTrGdTdCrAdTdTdTdCrGrAdCdCdTdCdTdCdTrGdCdTrArGdC , state its measured Screen- Human/No Protein.
2.18
